Test system: EKVX NSCLC
EXPERIMENT_SUMMARY: NCI tumour cell line growth inhibition, 48 h
VALUE_KIND: GI50

| COMPOUND | RESULT |
| --- | --- |
| COc1ccc(-n2cc(-c3cc(OC)c(OC)c(OC)c3)[nH]c2=S)cc1Cl | 37.3 µM |
| Cc1c2oc3c(C)cc(F)c(C(=O)NC4C(=O)NC(C(C)C)C(=O)N5CCCC5C(=O)N(C)CC(=O)N(C)C(C(C)C)C(=O)OC4C)c3nc-2c(C(=O)NC2C(=O)NC(C(C)C)C(=O)N3CCCC3C(=O)N(C)CC(=O)N(C)C(C(C)C)C(=O)OC2C)c(N)c1=O (stereo not drawn) | 0.767 µM |
| Nc1nccc2c1ccn2-c1cccc(NC(=O)c2ccc(N3CCOCC3)c(C(F)(F)F)c2)c1 | 1.99 µM |
| O=C(Nc1ccc(Oc2ccc(NC(=O)Nc3ccc([N+](=O)[O-])cc3)cc2)cc1)Nc1ccc([N+](=O)[O-])cc1 | 2.32 µM |
| CCCCCCCCCCCC1=NC(C)(C)CN1CC(C)O (stereo not drawn) | 11.2 µM |
| O=C(c1nn(-c2ccc(Cl)cc2)cc1O)n1nc(C(F)(F)F)cc1-c1ccccc1 | 2 µM |
| O=C(NO)c1ccc(Cn2c(=O)n(-c3ccccc3)c(=O)c3ccccc32)cc1 | 1.11 µM |
| OCCn1cc(-c2cnc3nnn(Cc4ccc5ncccc5c4)c3n2)cn1 | > 100 µM |

Reference source for all entries: PubChem BioAssay (NCI)
